Source listed as PubChem BioAssay (NCI).

Listed below: growth values for each entry.
# Tested on: SK-MEL-5 melanoma
# test name: NCI-60 one-dose screen, 48 h (100 = growth as untreated, 0 = no growth, -100 = all killed)
# condition parameters: 10 µM unless noted
This is part of a sample that, as a whole, favours compounds with a hit. Of some 83,000 tested, about 20% had one in any assay.
measurement kind: growth (%)

>  <compound>
CC1=N/C(=C\c2cccc(Br)c2)C(=O)O1

>  <measured number>
100

$$$$
>  <compound>
Nc1c(C(=O)Nc2cccc3c2OCCO3)sc2nc3c(cc12)CN(Cc1ccccc1)CC3

>  <measured number>
60.8

$$$$
>  <compound>
COc1cc(C(=O)/C=C/c2c(C)n([O-])c3ccc(C)cc3[n+]2=O)cc(OC)c1OC

>  <measured number>
89

$$$$
>  <compound>
COc1ccccc1-c1ccc2c(N)c(C(=O)c3ccc4c(c3)OCO4)sc2n1

>  <measured number>
56.6

$$$$
>  <compound>
COC(=S)SCN(CSC(=S)OC)c1ccc(Cl)cc1

>  <measured number>
83.6

$$$$
>  <compound>
COC1=CC(=O)C(OC)=C(OC)C1=O

>  <measured number>
97.5

$$$$
>  <compound>
NCc1cn2cc(Cl)sc2n1

>  <measured number>
103

$$$$
>  <compound>
C[C@@]1(N2C(=O)OC[C@@H]2c2ccccc2)C(=O)N([C@H](CC(=O)N2CCC(N3CCCCC3)CC2)C(=O)NCc2cccc(C(F)(F)F)c2)[C@@H]1/C=C/c1ccccc1

>  <measured number>
-93

$$$$
>  <compound>
CC/C(=C(\c1ccc(O)cc1)c1ccc(OCCN(C)CCN(C)C(=O)CCCCC(=O)c2c(C)[nH]c(/C=C3\N=C(c4ccc[nH]4)C=C3OC)c2C)cc1)c1ccccc1

>  <measured number>
77.8

$$$$
>  <compound>
CCN(CC)Cc1cc(Nc2c3ccccc3nc3cc(Cl)ccc23)ccc1O

>  <measured number>
-100

$$$$
>  <compound>
O=C(O)c1ccccc1Nc1cccc(S(F)(F)(F)(F)F)c1

>  <measured number>
95.6

$$$$
>  <compound>
O=C(Nc1nc(-c2ccccc2)cc(-c2ccc(Cl)cc2)n1)c1ccncc1

>  <measured number>
102

$$$$
>  <compound>
COc1cccc(NC(=O)c2sc3nc4c(cc3c2N)CN(Cc2ccccc2)CC4)c1

>  <measured number>
62.6

$$$$
>  <compound>
O=C(NC(Cc1ccccc1)C(=O)CCl)OCc1ccccc1 (configuration not stated)

>  <measured number>
75.9

$$$$
>  <compound>
CCN(CC)CCCC(C)Nc1ccnc2c(OC)cccc12 (configuration not stated)

>  <measured number>
111

$$$$
>  <compound>
COc1cc2c(=O)n(CC3CCCCC3)c3c4cc[nH]c4ncc3c2cc1OC

>  <measured number>
39.3

$$$$
>  <compound>
CCCCCC(=O)N(CCCC)CCCC

>  <measured number>
98.6

$$$$
>  <compound>
COc1ccc(C/C(C)=C(\c2ccc(OCCN3CCCCCC3)cc2)c2ccc(OC(=O)C3CCCCC3)cc2)cc1

>  <measured number>
65.4

$$$$
>  <compound>
CCN(CC)Cc1cc(Nc2c3ccc(Cl)cc3nc3c(C)cccc23)ccc1O

>  <measured number>
-96.5

$$$$
>  <compound>
Nc1ccc2c(c1)C(=O)NC2=O

>  <measured number>
105

$$$$
>  <compound>
COc1ccc(-c2nc(Nc3cc(C)[nH]n3)c3ccccc3n2)cc1

>  <measured number>
69

$$$$
>  <compound>
CS(=O)CCCCCN=C=S (configuration not stated)

>  <measured number>
12.1

$$$$
>  <compound>
N#Cc1c2c(nc3n[nH]c(N)c13)CCCC2

>  <measured number>
118

$$$$
>  <compound>
O=C(Nc1ccc(Nc2cc(Nc3ccccc3)ncn2)cc1)Nc1cc(C(F)(F)F)ccc1F

>  <measured number>
82

$$$$
>  <compound>
O=C(CCCN1CCOCC1)Nc1ccc(Cn2nnc3c2C(=O)c2nnn(Cc4ccc(NC(=O)CCCN5CCOCC5)cc4)c2C3=O)cc1

>  <measured number>
17.1

$$$$
>  <compound>
COc1ccc(/C=C/C(=O)c2ccc(NC(=O)c3cc4cc5ccccc5nc4s3)cc2)cc1OC

>  <measured number>
93.5

$$$$
>  <compound>
CCC(=O)Oc1ccc(/C(=C(\C)c2ccccc2)c2ccc(OCCN(CC)CC)cc2)cc1

>  <measured number>
74.8

$$$$
>  <compound>
COc1cc(NCCCCCN=C(N)NC(N)=NC(C)C)c2ncccc2c1

>  <measured number>
5.87

$$$$
>  <compound>
Oc1cc(O)c2c(=S)cc(-c3ccc(Cl)cc3)oc2c1

>  <measured number>
3.09

$$$$
>  <compound>
CCCCCCCCCC(=O)Oc1ccc(/C(=C(/C)c2ccccc2)c2ccc(OCCN3CCCC3)cc2)cc1

>  <measured number>
-98.5

$$$$
>  <compound>
COC(=O)[C@H](C(C)C)n1c(=O)c2cc(OC)c(OC)cc2c2cnc3[nH]ccc3c21

>  <measured number>
58.8

$$$$
>  <compound>
COc1cc(/C=N\NC(=O)CN2CCN(c3cc4c(cc3F)c(=O)c(C(=O)N/N=C/c3ccc(O)c(OC)c3)cn4C3CC3)CC2)ccc1O

>  <measured number>
56.8

$$$$
>  <compound>
CCOC(=O)c1cnc2cc(Cl)c(F)cc2c1Nc1cccc(NS(C)(=O)=O)c1

>  <measured number>
98.3

$$$$
>  <compound>
CC1=C(NCCN2CCCC2)C(=O)c2c(OCc3ccc(C(F)(F)F)cc3)cccc2C1=O

>  <measured number>
85.2

$$$$
>  <compound>
CC/C=C\C[C@H](O)C/C=C1/C(=O)C=C[C@@H]1C/C=C\CCCC(N)=O

>  <measured number>
-94.8

$$$$
>  <compound>
O=C1C(=O)N(CCCCn2cc(CO)nn2)c2ccccc21

>  <measured number>
101

$$$$
>  <compound>
COc1ccc2nc3cc(Cl)ccc3c(N3CCN(c4nccc(Nc5ccccc5)n4)CC3)c2c1

>  <measured number>
80.4

$$$$

###

# Tested on: HCC-2998 colon
# test name: NCI-60 one-dose screen, 48 h
# condition parameters: 10 µM unless noted
Compounds without any hit were thinned out: in the full panel of roughly 83,000, 20% have a hit. The source made the active and inactive calls. The calls were made as follows: active = growth percent below 10; inactive = the rest.
Outcomes: active, inactive

>  <compound>
O=C1C[C@H](Sc2nc(-c3ccc(F)cc3)cc(C(F)(F)F)n2)[C@H]2CO[C@@H]1O2

>  <cat>
inactive

$$$$
>  <compound>
COc1ccc(-c2cc(-c3cccnc3)nc3sc4c(=O)n(-c5ccc(C)cc5)nnc4c23)cc1OC

>  <cat>
inactive

$$$$
>  <compound>
O=C1CCc2c(sc3[nH]c(=S)n(Cc4ccccc4)c(=O)c23)C1

>  <cat>
inactive

$$$$
>  <compound>
Nc1nc2ccc(-c3nc4ccc5[nH]ncc5c4c4c3CCC4)cc2s1

>  <cat>
inactive

$$$$
>  <compound>
COc1ccc(-c2cc(-c3cccnc3)nc3sc4c(=O)n(-c5ccc(C)cc5)cnc4c23)cc1OC

>  <cat>
inactive

$$$$
>  <compound>
O=C(Cn1cc(CN2C(=O)c3ccccc3S2(=O)=O)nn1)Nc1ccc([N+](=O)[O-])cc1Cl

>  <cat>
inactive

$$$$
>  <compound>
COc1ccc2nc3cc(Cl)ccc3c(NCCNCC(O)CO)c2c1 (stereo unspecified)

>  <cat>
inactive

$$$$
>  <compound>
c1c2c(cc3c1OCO3)Cc1cc3c(cc1Cc1cc4c(cc1C2)OCO4)OCO3

>  <cat>
inactive

$$$$
>  <compound>
CCOC(=O)c1c2c(n3ccc(NC(=O)CCN4CCOCC4)cc13)C(=O)c1ncccc1C2=O

>  <cat>
inactive

$$$$
>  <compound>
CC(=O)Oc1cc2cnc3c4cc(OC(C)=O)c(OC(C)=O)cc4ccc3c2cc1OC(C)=O

>  <cat>
inactive

$$$$
>  <compound>
COc1ccc2nc3cc(Cl)ccc3c(N3CCN(c4nccc(Nc5ccc(Cl)cc5)n4)CC3)c2c1

>  <cat>
inactive

$$$$
>  <compound>
O=c1[nH]c(-c2ccccn2)nc2sc3c(c12)CCCCC3

>  <cat>
inactive

$$$$
>  <compound>
CN[C@@]12CC3(C=CC(=O)C=C3)O[C@]1(Cc1ccc(OC)cc1)N(C)C(=O)N2

>  <cat>
inactive

$$$$
>  <compound>
COc1ccccc1N1CCN(CCn2c(=O)c3c(c4ccccc4n3C)n(C)c2=O)CC1

>  <cat>
inactive

$$$$
>  <compound>
COC(=O)[C@H](C(C)C)n1c(=O)c2cc(OC)c(OC)cc2c2cnc3[nH]ccc3c21

>  <cat>
inactive

$$$$
>  <compound>
CCCCCCCCCCCCCC1=NCCN1CCO

>  <cat>
inactive

$$$$
>  <compound>
COc1cc2c(c(OC)c1OC)-c1ccc(N=NC(N)=S)c(=O)cc1[C@@H](NC(C)=O)CC2

>  <cat>
active

$$$$
>  <compound>
Cc1noc(C)c1-c1cc(O)cc(C(O)c2ccccc2)c1 (stereo unspecified)

>  <cat>
inactive

$$$$
>  <compound>
Nc1cccc(NC(=O)C(=O)Nc2cccc(N)c2)c1

>  <cat>
inactive

$$$$
>  <compound>
O=c1c2cccc3c(Nc4c(F)cccc4F)ccc(c32)c2nc3ccccc3n12

>  <cat>
inactive

$$$$
>  <compound>
OCC1C2C=CC(C2)C1CO (stereo unspecified)

>  <cat>
inactive

$$$$
